- SYSTEM_NAME: T1, human TIGIT protein (human, UniProt Q495A1 22-141, limits assumed)
- T1 construct: Recombinant protein (Genentech) used in ELISA screening and as SPR analyte; also called TIGIT antigen
- T1 sequence: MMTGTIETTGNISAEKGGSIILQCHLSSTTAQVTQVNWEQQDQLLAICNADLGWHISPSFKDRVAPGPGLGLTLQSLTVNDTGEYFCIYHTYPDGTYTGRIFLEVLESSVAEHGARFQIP
- EXPERIMENT_DESCRIPTION: SPR, captured mAb
PARAMETER: pKd
# log scale: pKd equals minus log10 of the concentration in mol/L

BINDER	pKd
h7E7.L1H6 (antibody, V domains shown, VH: A71R against h7E7.L1H1; FR/HVR pieces) VH: EVQLVQSGAEVKKPGASVKVSCKASGYTFTEYSIYWVRQAPGQRLEIIGRIDPKNGRTYYVDKFKNRATLTRDTSASTAYMELSSLRSEDTAVYFCTRIYGFYFDFWGQGTLVTVSS VL: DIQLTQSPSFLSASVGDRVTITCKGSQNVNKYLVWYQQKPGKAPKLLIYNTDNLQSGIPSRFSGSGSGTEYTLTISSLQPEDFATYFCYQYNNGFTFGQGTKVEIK	9.46

Please look at the following binder next.
Exercise: Request the reported pKd associated with h7E7.L3H1 (antibody, V domains shown, VL: Y71F against h7E7.L1H1; FR/HVR pieces) VH: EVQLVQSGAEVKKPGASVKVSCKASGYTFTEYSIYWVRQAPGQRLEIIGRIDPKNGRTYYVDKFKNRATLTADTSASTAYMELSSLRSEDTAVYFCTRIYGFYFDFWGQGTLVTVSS VL: DIQLTQSPSFLSASVGDRVTITCKGSQNVNKYLVWYQQKPGKAPKLLIYNTDNLQSGIPSRFSGSGSGTEFTLTISSLQPEDFATYFCYQYNNGFTFGQGTKVEIK
Key: 9.62
